Entry source: patent US10428140B2

- Experimental System: T1, human EphB4 (Homo sapiens, UniProt P54760)
- T1 construct: a protein of the extracellular region of each human Eph receptor fused with the SEAP protein and the His tag; made in house; host or cells: Expi293F cells
- T1 sequence (P54760 16-539 limits assumed): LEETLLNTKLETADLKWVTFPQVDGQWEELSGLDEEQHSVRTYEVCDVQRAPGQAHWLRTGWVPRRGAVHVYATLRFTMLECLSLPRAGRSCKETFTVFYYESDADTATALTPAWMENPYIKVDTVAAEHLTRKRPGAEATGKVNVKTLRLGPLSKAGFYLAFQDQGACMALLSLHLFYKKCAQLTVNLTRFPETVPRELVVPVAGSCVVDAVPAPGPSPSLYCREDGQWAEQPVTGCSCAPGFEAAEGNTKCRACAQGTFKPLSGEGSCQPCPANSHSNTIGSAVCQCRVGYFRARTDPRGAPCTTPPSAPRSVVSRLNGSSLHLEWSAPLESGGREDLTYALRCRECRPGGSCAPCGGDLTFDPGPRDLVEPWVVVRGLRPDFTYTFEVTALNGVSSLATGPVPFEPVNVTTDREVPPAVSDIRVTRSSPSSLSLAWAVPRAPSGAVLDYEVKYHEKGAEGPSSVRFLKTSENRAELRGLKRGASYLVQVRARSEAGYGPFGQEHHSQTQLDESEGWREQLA
- Run Description: Selectivity ELISA of humanized antibodies for human Eph receptor
- Assay type: binding
- Measurement Setup: coated protein 1 nM
Endpoint: hEphB4-SEAP-: absorbance at 450 nm, percentage with respect to hEphA4-SEAP-His as 100%

67 (antibody, V domains shown, synthetic humanized antibody heavy chain variable region sequence; synthetic humanized antibody light chain variable region sequence) VH: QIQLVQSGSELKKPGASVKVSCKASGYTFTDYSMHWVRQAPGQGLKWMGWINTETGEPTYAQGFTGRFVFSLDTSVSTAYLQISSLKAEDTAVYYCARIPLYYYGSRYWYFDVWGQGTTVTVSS VL: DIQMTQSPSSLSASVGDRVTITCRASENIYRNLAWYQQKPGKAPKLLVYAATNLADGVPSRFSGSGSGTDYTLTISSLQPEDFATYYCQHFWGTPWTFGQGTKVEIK yielded hEphB4-SEAP-: absorbance at 450 nm, percentage with respect to hEphA4-SEAP-His as 100% of 4.9%
